Data origin: PubChem BioAssay AID1963976

- System: 435261-313-R-J1-PDC tumor spheroid viability;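 note: spheroids exposed to compounds for 7 days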
- method.summary: Anticancer human tumor 435261-313-R-J1-PDC patient-derived colon adenocarcinoma cell line growth inhibition [PI3K]
- test.settings: second compound 0.1 µM; first compound 0.1 µM; active compounds read low; spheroids with HUVEC and MSC
Rule: viability, T/C below 40% gives TRUE, anything at or above gives FALSE.

Reference set (5 entries):
INSERT INTO results (compound, group_label) VALUES
  ('C=CC(=O)N1CCN(c2nc(=O)n(-c3c(C)ccnc3C(C)C)c3nc(-c4c(O)cccc4F)c(F)cc23)C(C)C1 (stereo unspecified) + CC(Nc1ncnc2nc[nH]c12)c1cc2cccc(Cl)c2c(=O)n1-c1ccccc1', 'FALSE'),
  ('C[C@@H](NC(=O)c1ncnc(N)c1Cl)c1ncc(C(=O)Nc2cc(C(F)(F)F)c(Cl)cn2)s1 + CC(Nc1ccc2c(c1)OCCn1cc(N3C(=O)OCC3C(F)F)nc1-2)C(N)=O', 'FALSE'),
  ('Cn1nccc1Nc1nccc(-c2ccn(C(CO)c3ccc(Cl)c(F)c3)c(=O)c2)n1 (stereo unspecified) + CC(Nc1ncnc2nc[nH]c12)c1cc2cccc(Cl)c2c(=O)n1-c1ccccc1', 'FALSE'),
  ('CNC(=O)c1ccc(N2C(=S)N(c3ccc(C#N)c(C(F)(F)F)c3)C(=O)C2(C)C)cc1F + CC(Nc1ncnc2nc[nH]c12)c1cc2cccc(Cl)c2c(=O)n1-c1ccccc1', 'FALSE'),
  ('C[C@@H](NC(=O)c1ncnc(N)c1Cl)c1ncc(C(=O)Nc2cc(C(F)(F)F)c(Cl)cn2)s1 + COc1c(OCCCN2CCOCC2)ccc2c3n(c(=NC(=O)c4cnc(N)nc4)nc12)CCN3', 'TRUE');

Field: next compound
input: Please indicate whether the reported viability, T/C of Cn1ncnc1[C@H]1c2n[nH]c(=O)c3cc(F)cc(c23)N[C@@H]1c1ccc(F)cc1 + CC(Nc1ncnc2nc[nH]c12)c1cc2cccc(Cl)c2c(=O)n1-c1ccccc1 is strictly below 40%.
output: FALSE
